target: kappa opioid receptor (OPRK1) (Homo sapiens (Human), UniProt P41145); assay: OPRK1 antagonist assay (b-arrestin-2-TEV / b-lactamase reporter, EC80 U-50488 challenge); conditions: OPRK1 antagonist assay vs EC80 U-50488
Sequence (P41145 whole entry): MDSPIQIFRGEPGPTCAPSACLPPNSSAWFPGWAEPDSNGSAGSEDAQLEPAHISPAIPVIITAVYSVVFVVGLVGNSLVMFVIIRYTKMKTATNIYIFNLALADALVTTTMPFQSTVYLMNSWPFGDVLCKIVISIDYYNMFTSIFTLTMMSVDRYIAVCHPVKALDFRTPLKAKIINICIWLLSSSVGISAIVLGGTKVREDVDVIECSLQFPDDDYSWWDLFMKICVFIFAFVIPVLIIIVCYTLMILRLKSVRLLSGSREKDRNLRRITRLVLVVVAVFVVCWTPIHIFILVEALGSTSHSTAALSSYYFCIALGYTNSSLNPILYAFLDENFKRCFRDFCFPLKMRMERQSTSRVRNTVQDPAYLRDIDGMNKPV
pIC50: −log10 of the molar value.
Rule: pIC50 of 8 or more gives y; anything lower gives n.

Below are worked cases with known answers.
| molecule | categoryLabel |
| --- | --- |
| Cc1nc(-c2c(N3CCC(NC4CCCC[C@@H]4O)CC3)nc3ccccc3c2C)no1 (some centres unmarked) [compound 446] | n |
| CO[C@H]1CN(c2nc3ccc(C)cc3cc2-c2nc(C3CC3)no2)CC[C@H]1NC1CCCCC1 [compound 337] | y |
| CCOC(=O)CCNC1CCN(c2nc3ccc(C)cc3cc2-c2nc(C)no2)CC1 [compound 407] | n |
| COC(=O)c1cc(Br)cnc1N1CCC(NC(=O)OC(C)(C)C)CC1 [C2] | n |
| c1cnnc(-c2cc3ccccc3nc2N2CCC(NC3CCCCC3)CC2)c1 [compound 464] | n |
| O=C(O)c1cc(Br)cnc1N1CCC(NC2CCCCC2)CC1 [C29] | n |

Query: Could you verify whether the entry CCc1noc(-c2cc3cc(C)ccc3nc2N2CC[C@H](NC3CCCCC3)[C@H](OC)C2)n1 [compound 330] shows pIC50 of no less than 8?
Result: y
